molecular target: BTK (Homo sapiens (Human), UniProt Q06187); assay: Z'-LYTE kinase inhibition assay against BTK; type: biochemical; settings: compound at 100 nM; ATP concentration at Km
Sequence (Q06187 whole entry): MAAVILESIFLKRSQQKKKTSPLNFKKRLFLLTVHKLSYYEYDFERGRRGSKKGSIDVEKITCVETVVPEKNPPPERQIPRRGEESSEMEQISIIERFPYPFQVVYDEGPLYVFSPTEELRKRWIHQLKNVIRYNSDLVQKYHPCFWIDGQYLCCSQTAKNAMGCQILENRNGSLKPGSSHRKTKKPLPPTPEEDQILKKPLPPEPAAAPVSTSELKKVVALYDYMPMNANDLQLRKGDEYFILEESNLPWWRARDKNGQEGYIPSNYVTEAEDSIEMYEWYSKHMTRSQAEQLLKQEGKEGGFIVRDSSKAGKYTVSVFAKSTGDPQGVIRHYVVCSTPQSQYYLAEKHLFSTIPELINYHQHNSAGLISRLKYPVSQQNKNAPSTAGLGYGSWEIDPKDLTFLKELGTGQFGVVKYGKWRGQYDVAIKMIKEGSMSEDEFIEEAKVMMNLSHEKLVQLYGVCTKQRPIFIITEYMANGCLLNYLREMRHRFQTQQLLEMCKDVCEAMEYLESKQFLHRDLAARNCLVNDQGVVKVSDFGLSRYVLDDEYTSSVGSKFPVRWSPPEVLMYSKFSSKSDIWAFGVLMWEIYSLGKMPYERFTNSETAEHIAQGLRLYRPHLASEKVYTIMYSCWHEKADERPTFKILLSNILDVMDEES
Below, each of the molecules is paired with its reported inhibition at 0.1 µM value.

Molecule: C=CC(=O)N1CCC(c2cc(-c3ccc(Oc4ccccc4)cc3)c(N)c3cncnc23)C1 (centres unmarked)
inhibition at 0.1 µM: < 50%

Req: Recall the reported inhibition at 0.1 µM of C=CC(=O)Nc1cccc(-c2cc(-c3ccc(C(=O)N4CCCC4)cc3)cc3cncnc23)c1 when tested on BTK (Homo sapiens (Human), UniProt Q06187).
Resp: > 50%

Req: Recall the reported inhibition at 0.1 µM of C=CC(=O)N1CCC(c2cc(-c3ccc(C(=O)Nc4ccccc4)cc3)cc3cncnc23)C1 (centres unmarked) when tested on BTK (Homo sapiens (Human), UniProt Q06187).
Resp: < 50%

Req: Recall the reported inhibition at 0.1 µM of C=CC(=O)Nc1cccc(-c2cc(-c3ccc(C(=O)Nc4ncccc4F)cc3Cl)c(N)c3cncnc23)c1 when tested on BTK (Homo sapiens (Human), UniProt Q06187).
Resp: > 50%

Req: Recall the reported inhibition at 0.1 µM of C=CC(=O)Nc1cccc(-c2cc(-c3ccc(Oc4ccccn4)cc3OC)cc3cncnc23)c1 when tested on BTK (Homo sapiens (Human), UniProt Q06187).
Resp: > 50%

###

Target: BTK (Homo sapiens (Human), UniProt Q06187)
Test: Z'-LYTE kinase inhibition assay against BTK
Type: biochemical
Conditions: compound at 100 nM; ATP concentration at Km
Protocol: Inhibitory activities of compounds against BTK, EGFR T790M, EGFR L858R, and EGFR L858R/T790M were measured using Z′-LYTE® Method from Life Technologies as briefly described in the following. Test Compounds are screened in 1% DMSO (final) in the well. For 10 point titrations, 3-fold serial dilutions are conducted from the starting concentration. All ATP Solutions are diluted to a 4× working concentration in Kinase Buffer (50 mM HEPES pH 7.5, 0.01% BRIJ-35, 10 mM MgCl2, 1 mM EGTA). […]
Endpoint label: inhibition at 0.1 µM

Consider the reported inhibition at 0.1 µM for these compounds:
Compound: C=CC(=O)N1CCC(c2cc(-c3ccc(C(=O)Nc4ccccc4)nc3)cc3cncnc23)C1 (centres unmarked) [C060]
Target of assay: BTK (Homo sapiens (Human), UniProt Q06187)
inhibition at 0.1 µM: < 50%

Compound: C=CC(=O)Nc1cccc(-c2cc(-c3ccc(C(=O)Nc4cc(C5CC5)ccn4)cc3Cl)c(N)c3cncnc23)c1 [C200]
Target of assay: BTK (Homo sapiens (Human), UniProt Q06187)
inhibition at 0.1 µM: > 50%

Compound: C=CC(=O)N1CCC(c2cc(-c3ccc(Oc4ccccn4)c(OC)c3)n3cnccc23)C1 (centres unmarked) [C167]
Target of assay: BTK (Homo sapiens (Human), UniProt Q06187)
inhibition at 0.1 µM: < 50%

Compound: CC#CC(=O)N1CCC(c2nc(-c3ccc(Oc4cc(C(F)(F)F)ccn4)c(OC)c3)n3c(N)nccc23)C1 (centres unmarked) [C222]
Target of assay: BTK (Homo sapiens (Human), UniProt Q06187)
inhibition at 0.1 µM: > 50%

Compound: C=CC(=O)N1CCC(c2cc(-c3ccc(C(=O)Nc4ccccn4)cc3F)cc3cncnc23)C1 (centres unmarked) [C094]
Target of assay: BTK (Homo sapiens (Human), UniProt Q06187)
inhibition at 0.1 µM: < 50%

Req: Read off the recorded inhibition at 0.1 µM for C=CC(=O)Nc1cccc(-c2cc(-c3cncc(C(F)(F)F)c3)cc3cncnc23)c1 [C055]
Resp: > 50%

Req: Read off the recorded inhibition at 0.1 µM for C=CC(=O)N1CCC(c2cc(-c3ccc(C(=O)Nc4ccccn4)cc3)cc3cncnc23)C1 (centres unmarked) [C079]
Resp: < 50%

Req: Read off the recorded inhibition at 0.1 µM for C=CC(=O)N1CCC(c2nc(-c3ccc(Oc4cc(OC)ccn4)cc3)n3c(N)nccc23)C1 (centres unmarked) [C210]
Resp: > 50%

Data origin, for the record: patent US10544106B2
